// CC50 at 24 h lookup, one value per entry
- ASSAY NAME: Cytotoxicity against human HLMVEC cells assessed as reduction in cell viability incubated for 24 hrs by MTT assay
- Format: toxicity, cell-based

# STRUCTURE SMILES, CC50 at 24 h
rows = [
    ("O=C(N/N=C/c1ccc(Br)cc1)c1cccc(NS(=O)(=O)c2c[nH]c(=O)[nH]c2=O)c1", "> 600 µM"),
    ("O=C(N/N=C/c1ccccc1)c1ccc(NS(=O)(=O)c2c[nH]c(=O)[nH]c2=O)cc1", "> 600 µM"),
    ("O=C(N/N=C/c1ccccc1F)c1cccc(NS(=O)(=O)c2c[nH]c(=O)[nH]c2=O)c1", "> 600 µM"),
    ("Cc1ccccc1/C=N/NC(=O)c1ccc(NS(=O)(=O)c2c[nH]c(=O)[nH]c2=O)cc1", "> 600 µM"),
    ("O=C(N/N=C/c1cccc(Br)c1)c1cccc(NS(=O)(=O)c2c[nH]c(=O)[nH]c2=O)c1", "565 µM"),
    ("Cc1cccc(/C=N/NC(=O)c2ccc(NS(=O)(=O)c3c[nH]c(=O)[nH]c3=O)cc2)c1", "174 µM"),
    ("O=C(N/N=C/c1ccc(F)cc1)c1cccc(NS(=O)(=O)c2c[nH]c(=O)[nH]c2=O)c1", "105 µM"),
    ("O=C(N/N=C/c1cccc(F)c1)c1ccc(NS(=O)(=O)c2c[nH]c(=O)[nH]c2=O)cc1", "190 µM"),
    ("O=C(N/N=C/c1ccccc1Cl)c1ccc(NS(=O)(=O)c2c[nH]c(=O)[nH]c2=O)cc1", "> 600 µM"),
    ("Cc1cccc(/C=N/NC(=O)c2cccc(NS(=O)(=O)c3c[nH]c(=O)[nH]c3=O)c2)c1", "> 600 µM"),
    ("O=C(N/N=C/c1cccc(Cl)c1)c1cccc(NS(=O)(=O)c2c[nH]c(=O)[nH]c2=O)c1", "154 µM"),
    ("O=C(N/N=C/c1ccc(Cl)cc1)c1ccc(NS(=O)(=O)c2c[nH]c(=O)[nH]c2=O)cc1", "> 600 µM"),
    ("O=C(N/N=C/c1ccccc1Cl)c1cccc(NS(=O)(=O)c2c[nH]c(=O)[nH]c2=O)c1", "> 600 µM"),
    ("O=C(N/N=C/c1ccc(F)cc1)c1ccc(NS(=O)(=O)c2c[nH]c(=O)[nH]c2=O)cc1", "540 µM"),
    ("Cc1ccc(/C=N/NC(=O)c2cccc(NS(=O)(=O)c3c[nH]c(=O)[nH]c3=O)c2)cc1", "> 600 µM"),
    ("O=C(N/N=C/c1cccc(F)c1)c1cccc(NS(=O)(=O)c2c[nH]c(=O)[nH]c2=O)c1", "127 µM"),
    ("O=C(N/N=C/c1cccc(Br)c1)c1ccc(NS(=O)(=O)c2c[nH]c(=O)[nH]c2=O)cc1", "> 600 µM"),
    ("O=C(N/N=C/c1ccc(Br)cc1)c1ccc(NS(=O)(=O)c2c[nH]c(=O)[nH]c2=O)cc1", "> 600 µM"),
]

The measured values listed here are drawn from ChEMBL document CHEMBL5620429.
